Origin of the recorded values: ChEMBL document CHEMBL1153531

Molecular target: Sodium-dependent serotonin transporter (Homo sapiens) (UniProt P31645)
Sequence (P31645 whole entry, looked up): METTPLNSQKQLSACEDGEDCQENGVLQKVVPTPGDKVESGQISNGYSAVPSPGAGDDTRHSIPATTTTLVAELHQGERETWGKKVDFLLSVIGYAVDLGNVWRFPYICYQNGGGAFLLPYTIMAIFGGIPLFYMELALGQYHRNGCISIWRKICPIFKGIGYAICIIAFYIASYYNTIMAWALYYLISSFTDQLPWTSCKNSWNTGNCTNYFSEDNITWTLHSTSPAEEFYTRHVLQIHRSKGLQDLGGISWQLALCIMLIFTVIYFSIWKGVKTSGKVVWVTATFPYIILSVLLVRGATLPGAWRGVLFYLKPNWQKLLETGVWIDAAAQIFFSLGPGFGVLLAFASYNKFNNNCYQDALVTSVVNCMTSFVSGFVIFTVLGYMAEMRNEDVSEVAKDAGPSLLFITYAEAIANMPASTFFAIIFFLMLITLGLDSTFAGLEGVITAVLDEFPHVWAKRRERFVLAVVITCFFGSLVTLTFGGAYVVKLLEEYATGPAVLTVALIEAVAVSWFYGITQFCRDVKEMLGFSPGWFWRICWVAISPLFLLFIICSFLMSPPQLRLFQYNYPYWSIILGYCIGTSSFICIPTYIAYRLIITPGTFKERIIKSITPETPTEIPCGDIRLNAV
Test: Inhibition of [3H]hydroxytryptamine creatinine sulfate uptake at human SERT expressed in human JAR cells at 1 uM
Format: cell-based
quantity: inhibition (%)

>  <item-smiles>
CNC[C@@H](O)[C@H](c1ccccc1)n1c(=O)n(C(C)C)c2cccc(F)c21

>  <result-units>
%

>  <reported-measurement>
6

$$$$

[a] CCn1c(=O)n([C@@H](c2ccccc2)[C@H](O)CNC)c2cc(F)ccc21
[b] CCn1c(=O)n([C@@H](c2ccccc2)[C@H](O)CNC)c2ccccc21
[c] CCn1c(=O)n([C@@H](c2ccccc2)[C@H](O)CNC)c2c(F)cccc21
Please list these in order of increasing inhibition. Thank you! Field: ranking. Enter the labels in the order requested. c, b, a
(c: -5%, b: 4%, a: 32%)

====

Target: Sodium-dependent dopamine transporter (Homo sapiens)
Experiment: Inhibition of [3H]WIN-35428 binding to human recombinant DAT expressed in CHO cells by scintillation counting
Type: cell-based
compounds and their reported IC5
Expressed in nM, but write only the number.

What the record says about CNC[C@@H](O)[C@H](c1cccc(F)c1)n1c(=O)n(C(C)C)c2cccc(F)c21 : IC5 is 6320

The recorded IC5 for CNC[C@@H](O)[C@H](c1ccccc1)n1ccc2ccccc21 is 358

In plain terms, CNCC[C@@H](Oc1ccccc1C)c1ccccc1 has a documented IC5 of 48

====

Biological target: Sodium-dependent noradrenaline transporter (Homo sapiens)
Sequence (P23975 whole entry): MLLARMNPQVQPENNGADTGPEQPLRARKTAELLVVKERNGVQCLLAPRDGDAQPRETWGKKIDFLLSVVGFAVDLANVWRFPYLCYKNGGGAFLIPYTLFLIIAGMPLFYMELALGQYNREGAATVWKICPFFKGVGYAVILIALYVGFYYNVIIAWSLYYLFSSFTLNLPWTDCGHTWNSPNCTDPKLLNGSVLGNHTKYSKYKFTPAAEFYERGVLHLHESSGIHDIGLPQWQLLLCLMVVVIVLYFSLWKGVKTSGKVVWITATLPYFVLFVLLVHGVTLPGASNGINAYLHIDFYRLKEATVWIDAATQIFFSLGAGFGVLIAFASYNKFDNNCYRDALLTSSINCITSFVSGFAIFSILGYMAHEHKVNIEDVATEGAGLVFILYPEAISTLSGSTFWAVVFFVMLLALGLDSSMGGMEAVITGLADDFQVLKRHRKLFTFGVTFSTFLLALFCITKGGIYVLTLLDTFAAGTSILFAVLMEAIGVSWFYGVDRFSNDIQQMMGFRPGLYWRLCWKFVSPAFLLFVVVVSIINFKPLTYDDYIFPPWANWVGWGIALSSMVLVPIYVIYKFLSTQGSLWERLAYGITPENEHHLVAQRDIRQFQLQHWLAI
Assay: biochemical
pIC50: −log10 of the molar value.
quantity: pIC50

Consider the following illustrative entries.
>  <item-smiles>
CNC[C@@H](O)[C@H](c1ccccc1)n1c(=O)n(C2CCC2)c2ccccc21

>  <pIC50>
7.05

$$$$
>  <item-smiles>
CCn1c(=O)n([C@@H](c2cccc(F)c2)[C@H](O)CNC)c2ccccc21

>  <pIC50>
8.19

$$$$
>  <item-smiles>
CCn1c(=O)n([C@@H](c2cccc(F)c2)[C@H](O)CNC)c2c(F)cccc21

>  <pIC50>
8.39

$$$$
>  <item-smiles>
CCn1c(=O)n([C@@H](c2ccccc2)[C@H](O)CNC)c2c(F)cccc21

>  <pIC50>
7.94

$$$$

[P] CCn1c(=O)n([C@@H](c2ccccc2)[C@H](O)CNC)c2ccccc21
[Q] CNC[C@@H](O)[C@H](c1ccccc1)n1c(=O)n(C(C)C)c2ccccc21
Which value of pIC50 is greater, the one for P or the one for Q ? // respond with label for picked entry Q

====

Assay: Terminal half life in Sprague-Dawley rat at 10 mg/kg, po
Type: ADME, organism-based
Set-up: dose 10 mg/kg, route oral
Conditions: in vivo, read-out: beta t1/2 (converted)
quantity: half-life (h)
Please state the figure in h; there is no need to write the unit.

>  <item-smiles>
CCn1c(=O)n([C@@H](c2ccccc2)[C@H](O)CNC)c2ccccc21

>  <reported-measurement>
3.4

$$$$

# ---- query compound ----
Lab note: measured half-life of CNC[C@@H](O)[C@H](c1cccc(F)c1)n1c(=O)n(C(C)C)c2cccc(F)c21 was 3.9

====

Target: Sodium-dependent serotonin transporter (Homo sapiens)
Test: Inhibition of [3H]hydroxytryptamine creatinine sulfate uptake at human SERT expressed in human JAR cells at 1 uM
Type: cell-based
quantity: inhibition (%)

>  <item-smiles>
CNC[C@@H](O)[C@H](c1ccccc1)n1c(=O)n(C2CCCC2)c2ccccc21

>  <test-target>
Sodium-dependent serotonin transporter (Homo sapiens)

>  <result-units>
%

>  <inhibition>
46

$$$$
>  <item-smiles>
CNC[C@@H](O)[C@H](c1ccccc1)n1c(=O)n(C(C)C)c2ccccc21

>  <test-target>
Sodium-dependent serotonin transporter (Homo sapiens)

>  <result-units>
%

>  <inhibition>
19

$$$$
>  <item-smiles>
CCn1c(=O)n([C@@H](c2cccc(F)c2)[C@H](O)CNC)c2ccccc21

>  <test-target>
Sodium-dependent serotonin transporter (Homo sapiens)

>  <result-units>
%

>  <inhibition>
15

$$$$
>  <item-smiles>
CNC[C@@H](O)[C@H](c1ccccc1)n1c(=O)n(C)c2ccccc21

>  <test-target>
Sodium-dependent serotonin transporter (Homo sapiens)

>  <result-units>
%

>  <inhibition>
15

$$$$
>  <item-smiles>
CCCn1c(=O)n([C@@H](c2ccccc2)[C@H](O)CNC)c2cc(F)ccc21

>  <test-target>
Sodium-dependent serotonin transporter (Homo sapiens)

>  <result-units>
%

>  <inhibition>
44

$$$$
